// data source = the RNAGym collection of RNA variant scans (doi:10.1002/anie.201605470)

Below, each entry is listed alongside its reported self-cleavage.
B1: Osa-1-4 twister ribozyme (parent)
chain: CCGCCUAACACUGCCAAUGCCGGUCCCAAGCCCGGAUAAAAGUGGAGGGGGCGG

Variants of: B1
METHOD_NOTES: self-cleavage, relative activity (ratio to wild type); higher = more cleavage; co-transcriptional
Answer field: number only, no words.

Solved entries (count: 10):
**Query** Would you mind telling me what self-cleavage value was observed for A10C C25A ?
**Result** 0.03

**Query** So what's the measured self-cleavage for this one? C27A G51C
**Result** 0.05

**Query** Could you share which self-cleavage value was measured for A16U C9U ?
**Result** 0.62

**Query** Given the variant G13A G42A , what is its reported self-cleavage?
**Result** 0.05

**Query** Which measured self-cleavage value corresponds to A38G G51C ?
**Result** 0.11

**Query** Tell me the measured self-cleavage of G22U G53U , please.
**Result** 0.12

**Query** For C14G C9A , what is its reported self-cleavage?
**Result** 0.04

**Query** Suppose we examine the variant G48C G50C ; what self-cleavage value has been reported?
**Result** 0.1

**Query** Which self-cleavage is listed for C27U G44C ?
**Result** 0.1

**Query** Return reported self-cleavage; argument: C9U U24A
**Result** 0.06

---
**Query** So what's the measured self-cleavage for this one? A36U C52G
**Result** 1.06

**Query** Which self-cleavage value is on record for A7G G19C ?
**Result** 0.06

**Query** self-cleavage lookup needed for C9G G53C , thanks.
**Result** 0.05

**Query** So what's the measured self-cleavage for this one? C31U G53A
**Result** 0.19

**Query** # input variant: C11G U18A ; wanted: its self-cleavage
**Result** 0.52

**Query** Looking for the measured self-cleavage of A36U G34A , can you help?
**Result** 0.86

**Query** Recorded self-cleavage of C9U G51C , please.
**Result** 0.04

**Query** Requested read-out: self-cleavage. Entry: U12A U18A
**Result** 0.91
